Target: Dyrk1a (Homo sapiens, UniProt Q13627)
PROPERTY NAME: IC50

[Q] Look up IC50: `Nc1ncc(-c2ccccc2)nc1C(=O)Nc1ccccc1N1CCC(C(=O)O)CC1`
[A] > 50 µM

###

For each record, write down the corresponding pEC50.
Test system: reversibly immortalized mouse beta (R7T1) cells
Assay: R7T1 proliferation assay (CellTiter Glo)
Assay type: cell-based
Settings: growth-arrested R7T1 cells
One number for each entry, as −log10 of the molar value.

structure_as_smiles=Nc1ncc(-c2ccccc2)nc1C(=O)Nc1cnccc1N1CCC(C(=O)O)CC1 assayed_target="reversibly immortalized mouse beta (R7T1) cells" experimental_value=5.66

Query compound follows.
[Q] Look up pEC50: `CC(C)Oc1ccc(F)c(-c2cnc(N)c(C(=O)Nc3cnccc3N3CCC[C@@H](C(=O)O)C3)n2)c1`
[A] 6.18
